molecular target: CYP4A (Homo sapiens, UniProt Q02928); construct: purchased; host or cells: bacterial membranes ('bactosome'); assay: CYP4A enzyme assay (luminescence, Luciferin-ME); assay type: biochemical; details: Compound concentration 5 μM; Greater than 90%; read-out: % Inhibition Greater than 90%
Sequence (Q02928 5-519): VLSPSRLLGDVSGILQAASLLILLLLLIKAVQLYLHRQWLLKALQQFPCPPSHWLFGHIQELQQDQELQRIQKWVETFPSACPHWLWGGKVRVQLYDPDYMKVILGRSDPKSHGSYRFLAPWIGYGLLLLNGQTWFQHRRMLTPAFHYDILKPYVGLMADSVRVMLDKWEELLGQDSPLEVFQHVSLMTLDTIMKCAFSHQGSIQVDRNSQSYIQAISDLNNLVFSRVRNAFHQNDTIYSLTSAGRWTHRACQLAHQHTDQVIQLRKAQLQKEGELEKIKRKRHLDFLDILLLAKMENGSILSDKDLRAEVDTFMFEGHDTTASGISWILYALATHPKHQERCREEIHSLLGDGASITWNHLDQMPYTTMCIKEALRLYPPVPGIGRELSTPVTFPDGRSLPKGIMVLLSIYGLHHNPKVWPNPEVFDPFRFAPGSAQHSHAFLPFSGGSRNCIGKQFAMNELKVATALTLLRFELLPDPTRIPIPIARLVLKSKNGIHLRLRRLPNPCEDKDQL
REPORTED_ENDPOINT: inhibition at 5 µM

Known inhibition at 5 µM results, listed for orientation:
O=C([C@H]1CCN(S(=O)(=O)c2ncn[nH]2)C1)N1CCN(c2ccnc3cc(O)ccc23)CC1 [Example 164]	> 90%
O=C([C@@H]1CCN(S(=O)(=O)c2ncn[nH]2)C1)N1CCN(c2ccnc3cc(F)ccc23)CC1 [Example 134]	> 90%
O=C(C1CCN(S(=O)(=O)c2ccc([N+](=O)[O-])cc2)CC1)N1CCN(c2ccnc3cc(F)ccc23)CC1 [Example 54]	> 90%
O=C(C1CCN(S(=O)(=O)c2ccc(-c3ccc(O)cc3)nc2)C1)N1CCN(c2ccnc3ccccc23)CC1 (centres unmarked) [Example 28]	> 90%
CC(=O)Nc1ccc(S(=O)(=O)N2CCC(C(=O)N3CCN(c4ccnc5cc(F)ccc45)CC3)C2)cc1 (centres unmarked) [Example 1]	> 90%
O=C(C1CN(S(=O)(=O)c2ccc([N+](=O)[O-])cc2)C1)N1CCN(c2ccnc3cc(F)ccc23)CC1 [Example 67]	> 90%
Cn1ccnc1S(=O)(=O)N1CCC(C(=O)N2CCN(c3ccnc4cc(F)ccc34)CC2)C1 (centres unmarked) [Example 5]	> 90%
CC(=O)Nc1ccc(S(=O)(=O)N2CC[C@@H](C(=O)N3CCN(c4ccnc5ccccc45)CC3)C2)cc1 [Example 22]	> 90%

Need inhibition at 5 µM, item COc1ccc2c(N3CCN(C(=O)[C@H]4CCN(S(=O)(=O)c5ncn[nH]5)C4)CC3)ccnc2c1 [Example 165] > 90%

Thanks! And O=C([C@H]1CCN(S(=O)(=O)c2ncn[nH]2)C1)N1CCN(c2ccnc3cc(F)c(F)cc23)CC1 [Example 168] ? > 90%

Another compound: CC(=O)Nc1cccc(S(=O)(=O)N2CCC(C(=O)N3CCN(c4ccnc5cc(F)ccc45)CC3)C2)c1 (centres unmarked) [Example 9] > 90%

Repeat for the following compound: O=C(C1CCN(S(=O)(=O)c2ncc[nH]2)C1)N1CCN(c2ccnc3ccccc23)CC1 (centres unmarked) [Example 42] > 90%

Likewise for O=C(C1CCN(S(=O)(=O)c2ccc(-c3ccncc3)cc2)CC1)N1CCN(c2ccnc3ccccc23)CC1 [Example 64] ? > 90%

Please do the same for O=C([C@H]1CCN(S(=O)(=O)c2nccn2CCO)C1)N1CCN(c2ccnc3ccc(F)cc23)CC1 [Example 160] as well. > 90%

Consider next the compound O=C([C@@H]1CCN(S(=O)(=O)c2ncc[nH]2)C1)N1CCN(c2ccnc3cc(F)ccc23)CC1 [Example 147] in the same way. > 90%

Similarly, CC(=O)Nc1nc(C)c(S(=O)(=O)N2CC[C@@H](C(=O)N3CCN(c4ccnc5ccccc45)CC3)C2)s1 [Example 48] ? > 90%

Moving on to O=C([C@H]1CCN(S(=O)(=O)c2ncc[nH]2)C1)N1CCN(c2ccnc3cc(F)c(F)cc23)CC1 [Example 169] > 90%

Same question, O=C(c1nn[nH]n1)N1CC[C@H](C(=O)N2CCN(c3ccnc4cc(F)ccc34)CC2)C1 [Example 162] this time > 90%

Let us now turn to Cc1n[nH]c(C)c1S(=O)(=O)N1CCC(C(=O)N2CCN(c3ccnc4cc(F)ccc34)CC2)C1 (centres unmarked) [Example 11] > 90%

What do you get for CC(=O)Nc1ccc(S(=O)(=O)N2CC(C(=O)N3CCN(c4ccnc5ccccc45)CC3)C2)cc1 [Example 70] ? > 90%

Same for CC(=O)Nc1cccc(S(=O)(=O)N2CCC(C(=O)N3CCN(c4ccnc5cc(F)ccc45)CC3)CC2)c1 [Example 55] > 90%

Next entry: COCCn1ccnc1S(=O)(=O)N1CC[C@H](C(=O)N2CCN(c3ccnc4cc(F)ccc34)CC2)C1 [Example 149] > 90%

One more compound: CC(C)(C)c1n[nH]c(S(=O)(=O)N2CCC(C(=O)N3CCN(c4ccnc5cc(F)ccc45)CC3)C2)n1 (centres unmarked) [Example 20] > 90%

Please do the same for CC(=O)Nc1ccc(S(=O)(=O)N2CC[C@H](C(=O)N3CCN(c4ccnc5ccccc45)CC3)C2)cc1 [Example 23] as well. > 90%

Similarly, Cc1ncc(-c2ccc(S(=O)(=O)N3CCC(C(=O)N4CCN(c5ccnc6ccccc56)CC4)C3)cc2)cn1 (centres unmarked) [Example 33] ? > 90%

Now consider CC(=O)Cn1cnc(S(=O)(=O)N2CC[C@H](C(=O)N3CCN(c4ccnc5cc(F)ccc45)CC3)C2)n1 [Example 142] and answer again. > 90%

Moving on to CC(=O)Nc1ccc(S(=O)(=O)N2CC[C@@H](C(=O)N3CCN(c4ccnc5cc(F)ccc45)CC3)C2)cc1 [Example 2] > 90%

Entry to check: O=C(C1CCCN(S(=O)(=O)c2ccc(N3CCOCC3)nc2)C1)N1CCN(c2ccnc3cc(F)ccc23)CC1 (centres unmarked) [Example 61] > 90%

What about this compound? CC(=O)Nc1nc(C)c(S(=O)(=O)N2CCC(C(=O)N3CCN(c4ccnc5ccccc45)CC3)C2)s1 (centres unmarked) [Example 47] > 90%
